All figures here come from PubChem BioAssay AID362.

- tgt: fMet-Leu-Phe receptor (Homo sapiens) (UniProt P21462)
- Sequence (P21462 whole entry, looked up): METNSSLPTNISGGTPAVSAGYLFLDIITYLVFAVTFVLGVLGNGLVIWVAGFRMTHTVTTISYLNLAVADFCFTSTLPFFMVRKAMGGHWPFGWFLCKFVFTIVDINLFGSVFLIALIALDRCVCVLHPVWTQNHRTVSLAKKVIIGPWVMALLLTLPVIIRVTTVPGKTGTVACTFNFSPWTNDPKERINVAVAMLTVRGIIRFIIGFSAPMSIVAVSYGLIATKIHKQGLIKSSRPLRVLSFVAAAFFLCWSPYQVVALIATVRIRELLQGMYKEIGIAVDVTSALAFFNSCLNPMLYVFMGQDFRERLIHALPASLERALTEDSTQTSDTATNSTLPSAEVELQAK
- procedure text: small-molecule ligands of human FPR – U937-FPR cells, fMLFK-FITC, flow cytometry, primary screen (AID 362)
- conditions used: fMLFK-FITC displacement, concentration not given here
The campaign covered roughly 4,300 compounds. About 60 (1%) were called active.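 Rule for the calls: active = inhibition of labelled peptide binding to the formyl peptide receptor of at least 65%; inactive = the rest.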 This excerpt belongs to a sample that is enriched for actives.
Entry note: the call must match one of active, inactive

For orientation, consider the following solved cases.
- molecule: "COC(=O)c1c(-c2cccc(C)c2)csc1NC(=O)C1CCCCC1C(=O)O (stereo not given)"
  category: "active"
- molecule: "Cc1ccc2nc3c(cc(C(=O)NCc4ccco4)c(=N)n3C3CCCC3)c(=O)n2c1"
  category: "inactive"

Outcome logged for CCOC(=O)CSc1nc2ccccc2c(=O)n1CC1CCC(C(=O)NCCc2ccccc2)CC1 (stereo not given) in this assay:
inactive

Test call for this molecule, please: CCCCOc1cc(OCCCC)c2c3c(c(=O)oc2c1)CCC3
active

Could you please tell me the result logged for COC(=O)c1c(-c2ccccc2)csc1NC(=O)C1CCCCC1C(=O)O (stereo not given) in this assay?
inactive

Any idea what this test logged for CCSCCOC(=O)C1=C(C)NC2=C(C(=O)C(C(=O)OC)C(C)C2)C1c1c(F)cccc1Cl (stereo not given) ?
inactive

What was the test verdict on CCOC(=O)c1c(-c2ccc(C)cc2C)csc1NC(=O)C1CCCCC1C(=O)O (stereo not given) ?
active

// return assay outcome for CC(C)Cn1cc(C(=O)NCc2ccco2)c2c3ccccc3n(C)c2c1=O
inactive

State the result this test recorded for CCSCCOC(=O)C1=C(C)NC2=C(C(=O)C(C(=O)OC)C(C)C2)C1c1cccc(F)c1 (stereo not given) .
inactive

Given O=C(O)C1C2C=CC(C2)C1C(=O)NCC1CCCO1 (stereo not given) , state the outcome it received in this test.
inactive

* * *

- tgt: fMet-Leu-Phe receptor (Homo sapiens) (UniProt P21462)
- procedure text: small-molecule ligands of human FPR – U937-FPR cells, fMLFK-FITC, flow cytometry, primary screen (AID 362)
- conditions used: fMLFK-FITC displacement, concentration not given here
The campaign covered roughly 4,300 compounds. About 60 (1%) were called active.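 How the source made its calls: active means inhibition of labelled peptide binding to the formyl peptide receptor of at least 65%; inactive means the rest.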 The sample as a whole holds a higher share of actives than the screen did.
The reply should name one outcome from class 1 for active, class 0 for inactive

- compound: "CC(C)C(C(=O)O)N1C(=O)/C(=C2/C(=O)N(C)c3ccccc32)SC1=S (stereo not given)"
  category: "class 1"

# lookup: test call for CCCOC(=O)C1=C(C)NC2=C(C(=O)C(C(=O)OC)C(C)C2)C1c1ccc(N(C)C)cc1 (stereo not given)
class 0

GET /call?item= COc1ccc(CNC(=O)CCCCCn2c(SCC(=O)NCC3CCCO3)nc3cc4c(cc3c2=O)OCO4)cc1 (stereo not given) returns the recorded outcome of this test.
class 0

Please share the test call associated with CCOc1ccc(C2C(C#N)=C(N)OC3=C2C(=O)CC(C)(C)C3)cc1 (stereo not given) .
class 0

How was O=C(CSc1nc2ccccc2c(=O)n1CC1CCC(C(=O)NCc2ccco2)CC1)NCCC1=CCCCC1 (stereo not given) classified in this test?
class 0

Called result for CCCOC(=O)c1c(NC(=O)C2CCCCC2C(=O)O)sc2c1CCC(C)C2 (stereo not given)
class 0

How was CCOc1ccc(C2C(C(=O)OCCOC(C)C)=C(C)NC3=C2C(=O)C(C(=O)OC)C(C)C3)cc1 (stereo not given) classified in this test?
class 0

Status in this test for CC(c1ccccc1)N1C(=O)/C(=C/c2c(N3CCCCC3)nc3ccccn3c2=O)SC1=S (stereo not given) ?
class 0

What classification did CCOc1cc2c(C(=O)N3CCN(c4ccccn4)CC3)cn(CC(C)C)c(=O)c2cc1OCC end up with in this test?
class 0

# fetch the recorded call for CC(C)(C)c1cc(NS(=O)(=O)c2ccccc2[N+](=O)[O-])cc(C(C)(C)C)c1O here
class 0

Check the results log: what was the call for CCN(C(=O)c1cccc(F)c1)c1ccc(C(O)(C(=O)OC)C(F)(F)F)cc1 (stereo not given) ?
class 1

What did this assay record as the result for O=C(CSc1c2c(nc3ccccc13)CCCC2)Nc1ccc2c(c1)OCCO2 ?
class 0

For CCOc1cc(C2Nc3c(ccc4ccccc34)C3=C2CCCC3=O)cc(Br)c1O (stereo not given) , what call appears in the results of this test?
class 0

# lookup: test call for CC1(C)CC(=O)C2=C(C1)Nc1[nH]n(-c3ccccc3)c(=O)c1C2c1ccccc1Cl (stereo not given)
class 1

What call does the record list for CCOC(=O)C1CCC(CN(Cc2ccc(Cl)cc2)S(=O)(=O)c2ccc([N+](=O)[O-])cc2)CC1 (stereo not given) ?
class 0

Please let me know the test result on file for CCOc1ccc(C2C3=C(CC(C)(C)CC3=O)Nc3[nH]n(-c4ccccc4)c(=O)c32)cc1 (stereo not given) .
class 1

What outcome does the record of this test show for CCOC(=O)C(O)(c1ccc(N(CC)C(=O)c2cccc(F)c2)cc1)C(F)(F)F (stereo not given) ?
class 0

So what was the verdict on CC(C)c1nnc(NC(=O)C(C(C)C)N2C(=O)c3ccccc3C2=O)s1 (stereo not given) in this test?
class 0

Any idea what this test logged for CCCOC(=O)c1c(NC(=O)C2CCCCC2C(=O)O)sc2c1CCC2 (stereo not given) ?
class 0

How did this test come out for CCOC(=O)c1c(NC(=O)C2C3C=CC(C3)C2C(=O)O)sc2c1CCCCCC2 (stereo not given) ?
class 0

Fill in: this test's call for CCOC(=O)c1c(NC(=O)C2CCCCC2C(=O)O)sc2c1CCC(C(C)(C)CC)C2 (stereo not given) is ___
class 0
